Provenance of the data: PubChem BioAssay (NCI)

tested on: SK-MEL-5 melanoma; test: NCI-60 one-dose screen, 48 h; details: 10 µM unless noted
About 83,000 compounds went through this panel and 20% of them were active in at least one assay; those are over-represented in the sample as a whole. Active and inactive are the calls of the source. Rule for the calls: active = growth percent below 10; inactive = the rest.
Assign a class; possible classes are True for active, False for inactive

Worked examples, 3 molecules total:
{"MOLECULE": "Cc1ccc(C(=O)c2ccc(CC(=O)N/N=C/c3ccccc3O)n2C)cc1", "CAT": "False"}
{"MOLECULE": "CCN1C(=S)N(c2ccccc2)C2NC(=S)N(/N=C/C=C/c3ccccc3OC)C21 (stereo not given)", "CAT": "False"}
{"MOLECULE": "CCc1ccccc1-n1c(-c2ccc(OC)cc2)cc(-c2ccc(OC)cc2)c(C#N)c1=O", "CAT": "False"}

In: Which outcome was entered for the molecule `COc1ccc(C/C(C)=C(/c2ccc(OCCN(C)C)cc2)c2ccc(OC(=O)NCc3ccccc3)cc2)cc1` in this test?
Out: False

In: Record request — test call for `COC1=CC(c2ccc[nH]2)=N/C1=C\c1[nH]c(C)c(C)c1CCC(=O)OCc1ccccc1`
Out: True

---

test system: MALME-3M melanoma; assay: NCI-60 one-dose screen, 48 h; details: 10 µM unless noted
Compounds without any hit were thinned out: in the full panel of roughly 83,000, 20% have a hit. Calls of active or inactive are those of the source. The calls were made as follows: active = growth percent below 10; inactive = the rest.
In this exercise, the only acceptable responses are y for active, n for inactive

Below, 5 compounds whose answers are already recorded.
{"COMPOUND": "CC1=C2[C@@H](CC1)[C@]1(C)O[C@@](C(C)C)(C[C@H]1OC(=O)[C@H](C)O)[C@H]2OC(=O)/C=C/c1ccccc1", "CAT": "n"}
{"COMPOUND": "COc1cc2oc(-c3cccc(NC(=O)c4ccccc4)c3)cc(=O)c2c(OC)c1OC", "CAT": "n"}
{"COMPOUND": "Cc1ccc(NC(=O)Cn2cc(CN3CCN(c4ccnc5cc(Cl)ccc45)CC3)nn2)cc1", "CAT": "n"}
{"COMPOUND": "N#Cc1c(-c2ccccc2)[nH]c2ncc(-c3ccccc3)n2c1=O", "CAT": "n"}
{"COMPOUND": "COc1ccccc1CNc1c2ccccc2nc2ccccc12", "CAT": "n"}

In: // param item: `COC(=O)/C=C1/SC(=Nc2ccc(C(F)(F)F)cc2)N(CCc2c[nH]c3ccc(O)cc23)C1=O` ; yields the recorded call
Out: y

In: What did this assay record as the result for `O=S(=O)(NCCCNc1nccc(-c2c(-c3ccc(F)c(O)c3)nc3occn23)n1)c1ccc(Cl)cc1` ?
Out: y

In: What call does the record list for `Cc1[nH]c(=O)[nH]c(=O)c1Br` ?
Out: n

In: Called result for `O=C(/C=C/c1cccc(Cl)c1)c1cccc(OCCCOc2cccc(C(=O)/C=C/c3cccc(Cl)c3)c2)c1`
Out: n

In: Called result for `CCOC(=O)Cc1cnc(N/N=C(\C)c2cc3ccccc3o2)s1`
Out: n

In: Write down the call the test reported for this compound. Item: `Cc1cc(N2CCN(CCNc3ccnc4cc(Cl)ccc34)CC2)nc(N2CCOCC2)n1`
Out: n

In: Test call for this compound, please: `Cc1ccc2c(n1)C(=O)C(Br)=C(CC(C)C)C2=O`
Out: n

In: Entry `CC(C)=CC(=O)OCC(=O)O[C@@H]1C[C@]2(C(C)C)O[C@@]1(C)[C@@H]1CC[C@@H](C)[C@H]1[C@@H]2OC(=O)/C=C/c1ccccc1` : call = ?
Out: n

In: What was the test verdict on CC(=O)O[C@H]1CC2CCC3C(CC[C@@]4(C)C3C[C@H]([N+]3(C)CCCCC3)[C@@H]4OC(C)=O)[C@@]2(C)C[C@@H]1N1CCCCC1 (some centres undefined) ?
Out: n

In: Lab log entry: `CCCn1cc2c(=O)nc3sc(Cc4ccccc4)c(C)n3c2n1` — outcome as called in the assay?
Out: n

---

Reported growth is given for each of the following molecules.
test system: MDA-MB-231 breast; test: NCI-60 one-dose screen, 48 h (100 = growth as untreated, 0 = no growth, -100 = all killed); conditions: 10 µM unless noted
This is part of a sample that, as a whole, favours compounds with a hit. Of some 83,000 tested, about 20% had one in any assay.
Answer format: numeric, % implied, no suffix.

In: Param readout= growth; system= MDA-MB-231 breast; entry= Cc1ccc(C2=Nc3c(N)ncnc3NC(c3cccc(Nc4ccnc5cc(C(F)(F)F)ccc45)c3)C2)cc1 (centres undefined) ; returns value.
Out: 29.6

---

system: SF-539 CNS; assay: NCI-60 one-dose screen, 48 h; conditions: 10 µM unless noted
Compounds without any hit were thinned out: in the full panel of roughly 83,000, 20% have a hit. Calls of active or inactive are those of the source. Rule for the calls: active = growth percent below 10; inactive = the rest.
Write down one outcome, taken from active, inactive

Worked set:
{"COMPOUND": "O=C1/C(=C/c2ccc([N+](=O)[O-])cc2)COc2ccc(O)cc21", "CAT": "inactive"}
{"COMPOUND": "CCNCCNc1cc(C2CCCCC2)c(C#N)c2nc3ccccc3n12", "CAT": "active"}
{"COMPOUND": "O=C1NC2(Nc3ccccc31)C(=O)Nc1c(Cl)cc(Cl)cc12 (stereo not given)", "CAT": "inactive"}
{"COMPOUND": "C=C1C(=O)O[C@H]2[C@H]1CC/C(COC(=O)c1cc3ccccc3s1)=C\\CC[C@@]1(C)O[C@@H]21", "CAT": "active"}
{"COMPOUND": "COc1ccc(-c2nc3c(ncc4ccc(=O)[nH]c43)s2)cc1", "CAT": "inactive"}

In: Assay result, entry N#Cc1ccc(O)c(C2=NCC(c3ccccc3)O2)c1 (stereo not given) — outcome?
Out: inactive

In: Tell me the recorded outcome of this test for `O=C1c2ccccc2-c2c1c1c(=O)[nH]c3ccccc3c1n2Cc1ccccc1` .
Out: inactive

In: Dear colleague, could you share the recorded outcome for CCN1C(=O)N(CC)C2C1NN=c1s/c(=C\c3ccccc3F)c(=O)n12 (stereo not given) when you have a moment?
Out: active

In: Please state the recorded outcome for this compound: `COc1ccc2c(c1)c(-c1nc(-c3c[nH]c4ccncc34)cs1)cn2C`
Out: active

In: Answer briefly: the call reported for `N=C(N)c1ccc(-c2ccc(-c3ccc(Cl)c(Cl)c3)s2)nc1` in this assay.
Out: inactive

---

system: NCI-H522 lung; experiment: NCI-60 one-dose screen, 48 h (100 = growth as untreated, 0 = no growth, -100 = all killed); conditions: 10 µM unless noted
Compounds without any hit were thinned out: in the full panel of roughly 83,000, 20% have a hit.
1 if growth is below 30%. -1 if not; exact matches included in -1.

{"COMPOUND": "O=C(CSc1nc2ccc([N+](=O)[O-])cc2[nH]1)Nc1ccc([N+](=O)[O-])cc1", "CAT": 1}
{"COMPOUND": "O=C(/C=C/c1ccco1)Nc1ncc(Cc2cccc(C(F)(F)F)c2)s1", "CAT": 1}
{"COMPOUND": "O=C(N/N=C/c1c(Cl)cccc1Cl)c1cccnc1Nc1cccc(C(F)(F)F)c1", "CAT": 1}

In the following, a different compound is considered.
In: Please determine if `COc1ccc(F)cc1/C=C/C(=O)/C=C(/C=C/c1cc(F)ccc1OC)OB(F)F` is below 30% in terms of growth.
Out: 1

---

test system: SNB-19 CNS; assay: NCI-60 one-dose screen, 48 h (100 = growth as untreated, 0 = no growth, -100 = all killed); conditions: 10 µM unless noted
Compounds without any hit were thinned out: in the full panel of roughly 83,000, 20% have a hit.
ENDPOINT LABEL: growth (%)
Your answer is read as %, so omit the unit and give the number.

{"CHEMICAL STRUCTURE": "C=CCOC(=O)Nc1cccn([C@H](Cc2ccccc2)C(=O)NCCC(C)C)c1=O", "growth (%)": 85.9}
{"CHEMICAL STRUCTURE": "O=C(Nc1ccc(Oc2cccc(F)c2)c(Cl)c1)c1cccnc1", "growth (%)": 42.6}
{"CHEMICAL STRUCTURE": "Nc1n[nH]c2cccc(C#Cc3cccc(NC(=O)c4cc(F)cc(C(F)(F)F)c4)c3)c12", "growth (%)": 104}

Turning to the following compound.
In: Param item = `COc1ccc2c(c1)c(-c1nc(-c3c[nH]c4ccncc34)cs1)cn2C` ; retrieve measured growth.
Out: -58.9

---

tested on: U251 CNS; assay: NCI-60 one-dose screen, 48 h; conditions: 10 µM unless noted
Compounds without any hit were thinned out: in the full panel of roughly 83,000, 20% have a hit. Calls of active or inactive are those of the source. Rule for the calls: active = growth percent below 10; inactive = the rest.
Select the matching outcome among active, inactive

Examples with answers:
{"COMPOUND": "COc1ccc(-c2nc3c(ncc4ccc(=O)[nH]c43)s2)cc1", "CAT": "inactive"}
{"COMPOUND": "Cn1c(=O)cc2c3c(c(NCCCO)ccc31)C(=O)c1ccccc1-2", "CAT": "inactive"}
{"COMPOUND": "c1ccc(-c2oc(-c3ccccc3)c(CN3CCCCC3)c2CN2CCCCC2)cc1", "CAT": "inactive"}
{"COMPOUND": "Cc1c(O)cc(-c2cnc(Nc3ccccc3)s2)c(O)c1C", "CAT": "inactive"}
{"COMPOUND": "N#Cc1ccc(O)c(C2=NCC(c3cccc(Oc4ccccc4)c3)O2)c1 (stereo unspecified)", "CAT": "active"}
{"COMPOUND": "CN(C)CCNC(=O)c1cc2c3cc(Cl)ccc3[nH]c2c2ncccc12", "CAT": "inactive"}
{"COMPOUND": "c1ccc([P+](c2ccccc2)(c2ccccc2)c2ccc3c4ccc([P+](c5ccccc5)(c5ccccc5)c5ccccc5)c5cccc(c6cccc2c63)c54)cc1", "CAT": "inactive"}
{"COMPOUND": "O=C(O)c1cn(C2CC2)c2cc(N3CCN(Cc4ccc5ccccc5c4O)CC3)c(F)cc2c1=O", "CAT": "inactive"}

In: So what was the verdict on `O=C(Nc1nc2ccccc2s1)c1ccc(F)cc1` in this test?
Out: inactive

In: Record lookup: outcome of this test for `CCOC(=O)C#Cc1c(C(=O)OCC)nnn1Cc1ccc([N+](=O)[O-])cc1` ?
Out: inactive

In: Recorded test outcome, item `CCN(CC)Cc1cc(C=C2C(=O)NC(=S)NC2=O)cc(OC)c1O`
Out: inactive
